system: Escherichia coli TOP10; assay: shrunken log2 fold change of peptide-encoding DNA abundance (4.5 h post-induction vs induction); higher = less antimicrobial activity (less host growth inhibition); details: time post-induction: 4.5 h; library: site-saturation at positions 5, 18, 19, 20
Tag: rule met if measured shrunken log2 fold change is not below 0.1, rule not met if it is.

Q. Is reported shrunken log2 fold change greater than or equal to 0.1 here: RRIRDRPPRLPRPRPRPDVFPRP
A. rule not met

Q. Check if shrunken log2 fold change >= 0.1 (inclusive). Item: RRIRFRPPRLPRPRPRPEEHPRP
A. rule not met

Q. Check this sequence for shrunken log2 fold change at or above 0.1: RRIRHRPPRLPRPRPRPKASPRP
A. rule not met

Q. // inclusive: shrunken log2 fold change at least 0.1? input: RRIRLRPPRLPRPRPRPRLMPRP
A. rule not met

Q. Hello, I need to know if RRIRTRPPRLPRPRPRPKMGPRP has measured shrunken log2 fold change not below 0.1. Thanks!
A. rule not met

Q. Can RRIRSRPPRLPRPRPRPWKSPRP be said to have shrunken log2 fold change at or above 0.1?
A. rule not met

Q. Please tell me: is the sequence RRIRDRPPRLPRPRPRPYDHPRP at or over 0.1 in terms of shrunken log2 fold change?
A. rule not met

Q. Given RRIRVRPPRLPRPRPRPNIYPRP , state whether its shrunken log2 fold change is at least 0.1.
A. rule not met

Q. Dear colleague, could you confirm whether RRIRERPPRLPRPRPRPPRHPRP has shrunken log2 fold change at or above 0.1?
A. rule not met

Q. Is the recorded value of shrunken log2 fold change equal to or greater than 0.1 for this sequence? RRIRGRPPRLPRPRPRPYWGPRP
A. rule met

Q. Identify whether the reported shrunken log2 fold change of the following sequence is 0.1 or greater: RRIRARPPRLPRPRPRPDMFPRP
A. rule not met

Q. Exam item: decide whether the reported shrunken log2 fold change for RRIRSRPPRLPRPRPRPRREPRP is at least 0.1.
A. rule met

Q. Please tell me: is the sequence RRIRGRPPRLPRPRPRPHWVPRP at or over 0.1 in terms of shrunken log2 fold change?
A. rule met

Q. Hi team, for RRIRDRPPRLPRPRPRPPSNPRP , is the recorded shrunken log2 fold change at or above 0.1?
A. rule met

Q. Test whether the sequence RRIRFRPPRLPRPRPRPFKCPRP records shrunken log2 fold change of 0.1 or higher.
A. rule not met

Q. Could you tell me if the measured shrunken log2 fold change of RRIRWRPPRLPRPRPRPGPPPRP reaches 0.1 or more?
A. rule met

Q. Given RRIRWRPPRLPRPRPRPPFSPRP , state whether its shrunken log2 fold change is at least 0.1.
A. rule met

Q. Say whether RRIRWRPPRLPRPRPRPRIDPRP shows shrunken log2 fold change of 0.1 or more.
A. rule not met

Q. Determine whether this sequence has shrunken log2 fold change no lower than 0.1: RRIRRRPPRLPRPRPRPLSEPRP
A. rule met

Q. Identify whether the reported shrunken log2 fold change of the following sequence is 0.1 or greater: RRIRTRPPRLPRPRPRPEYLPRP
A. rule not met

Q. Reported shrunken log2 fold change at or above 0.1? RRIRVRPPRLPRPRPRPPWYPRP
A. rule not met

Q. Is reported shrunken log2 fold change greater than or equal to 0.1 here: RRIRSRPPRLPRPRPRPSVPPRP
A. rule not met

Q. Decide: shrunken log2 fold change of RRIRKRPPRLPRPRPRPSLHPRP >= 0.1?
A. rule not met

Q. Textbook exercise: given the entry RRIRWRPPRLPRPRPRPADAPRP , state whether its shrunken log2 fold change is greater than or equal to 0.1.
A. rule met

Q. Threshold query (shrunken log2 fold change >= 0.1) on RRIRRRPPRLPRPRPRPGAIPRP
A. rule met

Q. Entry RRIRKRPPRLPRPRPRPLHPPRP : is its shrunken log2 fold change no less than 0.1?
A. rule met

Q. // inclusive: shrunken log2 fold change at least 0.1? input: RRIRKRPPRLPRPRPRPYRYPRP
A. rule not met

Q. Does the sequence RRIRERPPRLPRPRPRPVSQPRP have recorded shrunken log2 fold change that is 0.1 or more?
A. rule not met

Q. I'd appreciate it if you could say whether RRIRRRPPRLPRPRPRPNRWPRP has shrunken log2 fold change at least equal to 0.1.
A. rule met

Q. Could you tell me if the measured shrunken log2 fold change of RRIRYRPPRLPRPRPRPTHIPRP reaches 0.1 or more?
A. rule not met

Q. Could you verify whether the entry RRIRHRPPRLPRPRPRPTQSPRP shows shrunken log2 fold change of no less than 0.1?
A. rule met

----------
test system: Escherichia coli TOP10; test: shrunken log2 fold change of peptide-encoding DNA abundance (4.5 h post-induction vs induction); higher = less antimicrobial activity (less host growth inhibition); conditions: time post-induction: 4.5 h; library: site-saturation at positions 5, 18, 19, 20;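 note: peptides expressed intracellularly from a pBAD plasmid library in pooled LB shake-flask culture, induced with 0.3% L-arabinose, DNA abundance read by NGS, three biological replicates, DESeq2 with apeglm shrinkage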
Endpoint name: shrunken log2 fold change
Please state the value as a number alone, without comment.

Q. // lookup shrunken log2 fold change for RRIRKRPPRLPRPRPRPNYAPRP
A. -0.0324

Q. Form field: reported shrunken log2 fold change of RRIRWRPPRLPRPRPRPTHNPRP
A. 0.0181

Q. # lookup: shrunken log2 fold change of RRIRNRPPRLPRPRPRPIIPPRP
A. -0.0623

Q. Reported shrunken log2 fold change, sequence RRIRDRPPRLPRPRPRPPDQPRP : ____
A. 0.72

Q. Suppose we examine the sequence RRIRKRPPRLPRPRPRPWPSPRP ; what shrunken log2 fold change value has been reported?
A. 0.0175

Q. Requested read-out: shrunken log2 fold change. Entry: RRIRMRPPRLPRPRPRPTDGPRP
A. -0.0062

Q. shrunken log2 fold change lookup needed for RRIRWRPPRLPRPRPRPMHTPRP , thanks.
A. 0.643

Q. Endpoint output: shrunken log2 fold change of RRIRTRPPRLPRPRPRPLLNPRP . Value?
A. -0.157

Q. Name the reported shrunken log2 fold change value associated with the sequence RRIRPRPPRLPRPRPRPQQRPRP
A. 0.0201

Q. Request the reported shrunken log2 fold change associated with RRIRFRPPRLPRPRPRPTIQPRP
A. -0.266

Q. shrunken log2 fold change for RRIRWRPPRLPRPRPRPCKCPRP ?
A. -0.0392

Q. Which shrunken log2 fold change reading was recorded for the sequence RRIRARPPRLPRPRPRPMSMPRP ?
A. 0.0853

Q. Fill blank: measured shrunken log2 fold change of the sequence RRIRLRPPRLPRPRPRPGDVPRP is ____.
A. 0.0737

Q. If you can, please state the reported shrunken log2 fold change value of RRIRQRPPRLPRPRPRPMPNPRP .
A. -0.215

Q. Entry under review: RRIRSRPPRLPRPRPRPPEFPRP . Reported shrunken log2 fold change?
A. -0.119

Q. Name the recorded shrunken log2 fold change for RRIRNRPPRLPRPRPRPPPHPRP .
A. 0.794

Q. Returns the measured shrunken log2 fold change for the input sequence. Input: RRIRRRPPRLPRPRPRPNDFPRP
A. -0.189

Q. What measured shrunken log2 fold change goes with RRIRTRPPRLPRPRPRPGTQPRP ?
A. -0.036

Q. I'd like to know its shrunken log2 fold change. The sequence in question is RRIRLRPPRLPRPRPRPDHKPRP
A. -0.257

Q. Can you share its shrunken log2 fold change? I mean this sequence: RRIRERPPRLPRPRPRPRVDPRP
A. 0.0531

Q. For the sequence RRIRERPPRLPRPRPRPWQSPRP , what shrunken log2 fold change is on record?
A. -0.00865

Q. Look up shrunken log2 fold change: RRIRSRPPRLPRPRPRPYRMPRP
A. -0.0162

Q. # shrunken log2 fold change lookup, item RRIRPRPPRLPRPRPRPRCSPRP
A. 0.00477

Q. // query shrunken log2 fold change value for entry RRIRRRPPRLPRPRPRPRIRPRP
A. 0.179

Q. Tell me the measured shrunken log2 fold change of RRIRIRPPRLPRPRPRPLYIPRP , please.
A. -0.695

Q. Record request: shrunken log2 fold change value, item RRIRPRPPRLPRPRPRPKWNPRP
A. -0.0477

Q. I would be grateful if you could share the reported shrunken log2 fold change for RRIRARPPRLPRPRPRPSAWPRP .
A. 0.797

Q. Dear colleague, I am looking for the recorded shrunken log2 fold change of the following sequence: RRIRARPPRLPRPRPRPHMIPRP
A. 0.028

Q. Name the reported shrunken log2 fold change value associated with the sequence RRIRRRPPRLPRPRPRPNTMPRP
A. -0.262

Q. Can you look up the measured shrunken log2 fold change of RRIRTRPPRLPRPRPRPKRMPRP for me?
A. -0.157

Q. Which shrunken log2 fold change value belongs to RRIRFRPPRLPRPRPRPPEDPRP ?
A. 0.357

Q. // returns reported shrunken log2 fold change for input RRIRSRPPRLPRPRPRPFGQPRP
A. -0.197
